Data origin, for the record: patent EP2088149A1

ASSAY_SUMMARY: Acute toxicity (LD50, Litchfield and Wilcoxon), intraperitoneal, 14 days follow-up
TEST_SETTINGS: mouse, in vivo, ip; male white outbred mice, intraperitoneally, follow-up 14 days

[
  {
    "MOLECULE": "COc1ccc(C(=O)N2CC3(C)CN(C(=O)c4ccc(OC)c(Cn5cccn5)c4)CC(C)(C2)C3=O)cc1Cn1cccn1",
    "LD50 at 14 days (mg/kg)": 900
  },
  {
    "MOLECULE": "CC12CC3CC(C)(C1)CC(N)(C3)C2 [Memantine, reference compound]",
    "LD50 at 14 days (mg/kg)": 1000
  },
  {
    "MOLECULE": "CC12CN(C(=O)c3ccc4c(c3)OCO4)CC(C)(CN(C(=O)c3ccc4c(c3)OCO4)C1)C2=O",
    "LD50 at 14 days (mg/kg)": 140
  },
  {
    "MOLECULE": "CC12CN(C(=O)c3ccc4c(c3)OCCO4)CC(C)(CN(C(=O)c3ccc4c(c3)OCCO4)C1)C2=O",
    "LD50 at 14 days (mg/kg)": 350
  },
  {
    "MOLECULE": "Cc1nc2ccc(C(=O)N3CC4(C)CN(C(=O)c5ccc6nc(C)c(C)nc6c5)CC(C)(C3)C4=O)cc2nc1C",
    "LD50 at 14 days (mg/kg)": 90
  }
]
